B1: HDV Ribozyme (parent)
chain: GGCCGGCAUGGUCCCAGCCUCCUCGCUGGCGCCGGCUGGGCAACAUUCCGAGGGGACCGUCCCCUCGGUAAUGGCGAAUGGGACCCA

# Variants of: B1
# assay-notes: self-cleavage, relative activity (ratio to wild type); higher = more cleavage; co-transcriptional
value-type: self-cleavage
Please respond with just the number, no unit label.

| mutant-designation | self-cleavage |
| --- | --- |
| G39A G74A | 0.172 |
| C22A A45U | 0.233 |
| U69C G82U | 0.554 |
| A8G G25C | 0.175 |
| U20C G29C | 0.231 |

For the variant shown here, G59C C61U , give the reported self-cleavage.
1.01

Find the recorded self-cleavage belonging to U9A A70U and report it.
0.997

# input variant: G35C G54U ; wanted: its self-cleavage
0.326

GET /values?readout=self-cleavage&item= U23A C66U
0.943

// query self-cleavage value for entry C19A C41G
0

For A56C G74U , what is its reported self-cleavage?
0.708

Query: self-cleavage; subject: U27C C33U
0.453

Given the entry G40A A51U , report its measured self-cleavage.
0.844

Measured values drawn from the RNAGym collection of RNA variant scans (doi:10.7554/elife.80360) for this set.
